- target.system: HLA-A*68:02
- method.summary: IEDB peptide-MHC binding, purified MHC/competitive/fluorescence; filed as Kd, often an IC50 or EC50 that approximates it; bounds were set here for any values at or beyond the usual limits of such assays
- condition.info: source organism: Campylobacter jejuni subsp. jejuni 81-176
pKd: −log10 of the molar value.
measured.metric: pKd

Please tell me the measured pKd for SVAHSAYEL ; system: HLA-A*68:02.
≥ 10.00

###

- target.system: HLA-A*26:01
- method.summary: IEDB peptide-MHC binding, purified MHC/competitive/fluorescence; filed as Kd, often an IC50 or EC50 that approximates it; bounds were set here for any values at or beyond the usual limits of such assays
- condition.info: source organism: Yersinia pestis KIM10+
measured.metric: Kd (nM)
Enter your answer as a number in nM; do not include the unit.

For the sequence STFAASGPF , give its measured Kd value.
19.2
